Below, each of the molecules is paired with its reported growth value.
System: SF-539 CNS
Experiment: NCI-60 one-dose screen, 48 h (100 = growth as untreated, 0 = no growth, -100 = all killed)
Settings: 10 µM unless noted
Experimental: Cells are grown in 96 well plates and exposed to the test compound for 48 hours. Compounds are tested at a single concentration, which is 10^-5 M for most compounds. The reported endpoint is percent growth (GI% or GIPRCNT), where numbers from 0 - 100% represent growth inhibition, and numbers from -100% - 0 represent cell death. For example, a value of 40 represents 60% growth inhibition. A value of 0 means no net growth occurred over the course of the experiment. […]
Compounds without any hit were thinned out: in the full panel of roughly 83,000, 20% have a hit. Active and inactive are the calls of the source. The calls were made as follows: active = growth percent below 10; inactive = the rest.
METRIC NAME: growth

{"MOLECULE": "NC(=NCCCC1(c2ccccc2)CCCC1)Nc1ccc(Cl)cc1", "STUDY SYSTEM": "SF-539 CNS", "VAL": "51.3% (inactive)"}
{"MOLECULE": "Cc1cc(N[C@@H]2CCC[C@H](Nc3ccnc4cc(Cl)ccc34)C2)nc(N2CCCCCC2)n1", "STUDY SYSTEM": "SF-539 CNS", "VAL": "-93% (active)"}
{"MOLECULE": "COC(=O)c1ccc(Cn2cnc3c(N)ncnc32)cc1", "STUDY SYSTEM": "SF-539 CNS", "VAL": "92.1% (inactive)"}
{"MOLECULE": "CN1CCN(CCCOc2cccc3nc(Nc4cc(Cl)cc(Cl)c4)ccc23)CC1", "STUDY SYSTEM": "SF-539 CNS", "VAL": "7.62% (active)"}
{"MOLECULE": "COc1cc(/C=C/C(=O)c2c(C)oc3nc[nH]c(=O)c23)cc(OC)c1OC", "STUDY SYSTEM": "SF-539 CNS", "VAL": "95.7% (inactive)"}
{"MOLECULE": "CCOC(=O)c1sc2nc(-c3cccc(O)c3)nc(N3CCOCC3)c2c1C", "STUDY SYSTEM": "SF-539 CNS", "VAL": "51.3% (inactive)"}
{"MOLECULE": "CNC(=O)c1cc(Oc2ccc(NC(=O)Nc3ccc(Cl)c(SC)c3)c(F)c2)ccn1", "STUDY SYSTEM": "SF-539 CNS", "VAL": "47.3% (inactive)"}
{"MOLECULE": "CC(=O)Nc1ccc(-n2c(O)c(/C=N/NC(=O)Cc3ccccc3Nc3c(Cl)cccc3Cl)sc2=S)cc1", "STUDY SYSTEM": "SF-539 CNS", "VAL": "98.4% (inactive)"}
{"MOLECULE": "COC[C@H](C)n1c(C2CCOCC2)nc2cnc3cc(-c4c(C)noc4C)c(OC)cc3c21", "STUDY SYSTEM": "SF-539 CNS", "VAL": "40.7% (inactive)"}
{"MOLECULE": "Cc1cc(C)nc(SC2=C(Nc3cc(Cl)ccc3O)C(=O)N(Cc3ccccc3)C2=O)n1", "STUDY SYSTEM": "SF-539 CNS", "VAL": "118% [30 µM] (inactive)"}
{"MOLECULE": "Cc1ccc2c(C(C[N+](=O)[O-])c3ccccc3)c(-c3ccccc3)[nH]c2c1 (centres undefined)", "STUDY SYSTEM": "SF-539 CNS", "VAL": "8.82% [9.5 µM] (active)"}
{"MOLECULE": "Cc1cc(N2CCCCCC2)nc(NC2CCCC(Nc3ccnc4cc(Cl)ccc34)C2)n1 (centres undefined)", "STUDY SYSTEM": "SF-539 CNS", "VAL": "-92.1% (active)"}
{"MOLECULE": "Cn1ccnc1C(=O)/C=C/c1ccc(CC(=O)Nc2ccccc2)cc1", "STUDY SYSTEM": "SF-539 CNS", "VAL": "-18.5% (active)"}
{"MOLECULE": "COc1ccc(/C=C\\c2cc(OC)c(OC)c(OC)c2)cc1OCC(=O)Nc1ccc2nc(C)sc2c1", "STUDY SYSTEM": "SF-539 CNS", "VAL": "57.1% (inactive)"}
{"MOLECULE": "COc1ccc(-c2nn(-c3ccc(Cl)cc3)cc2-c2nc3ccccc3[nH]2)cc1", "STUDY SYSTEM": "SF-539 CNS", "VAL": "106% (inactive)"}
{"MOLECULE": "CSc1nc(NCc2ccccc2)c(C#N)c(-c2cccc([N+](=O)[O-])c2)n1", "STUDY SYSTEM": "SF-539 CNS", "VAL": "104% (inactive)"}
{"MOLECULE": "CON1C(=O)CC[C@]2(C)[C@H]3CC[C@@H]4C([C@@]5(C)CCC(=O)O5)CC[C@@]4(C)[C@]3(C)CC[C@H]2C1(C)C (some centres undefined)", "STUDY SYSTEM": "SF-539 CNS", "VAL": "99.8% (inactive)"}
{"MOLECULE": "COc1ccc(C(=O)c2sc3nc4c(c(-c5cccnc5)c3c2N)CCCC4)cc1OC", "STUDY SYSTEM": "SF-539 CNS", "VAL": "73.4% (inactive)"}
{"MOLECULE": "COc1ccc(/C=N/C2=C(C#N)C(c3ccc(N(C)C)cc3)c3ccc4ccccc4c3O2)cc1 (centres undefined)", "STUDY SYSTEM": "SF-539 CNS", "VAL": "51.8% (inactive)"}
{"MOLECULE": "COc1ccc(-c2nc3ccc(-c4nc5ccc(N6CCN(c7ccc(F)cc7)CC6)cc5[nH]4)cc3[nH]2)cc1OC", "STUDY SYSTEM": "SF-539 CNS", "VAL": "68.2% (inactive)"}
{"MOLECULE": "Cc1ccc2c(C(C[N+](=O)[O-])c3ccco3)c(-c3ccccc3)[nH]c2c1 (centres undefined)", "STUDY SYSTEM": "SF-539 CNS", "VAL": "20.4% (inactive)"}
{"MOLECULE": "CCN=C1C=CC(=C(c2ccc(N)cc2)c2ccc(N(CC)CC)c(C)c2)C=C1", "STUDY SYSTEM": "SF-539 CNS", "VAL": "-31.2% (active)"}
{"MOLECULE": "COc1cccc(-c2nn(C(C)(C)C)cc2-c2ccnc(NCCCNS(=O)(=O)c3cccc4ccccc34)c2)c1", "STUDY SYSTEM": "SF-539 CNS", "VAL": "113% (inactive)"}
{"MOLECULE": "N#CCCN=Nc1c(O)[nH]c2ccc([N+](=O)[O-])cc12", "STUDY SYSTEM": "SF-539 CNS", "VAL": "94.9% (inactive)"}
